Listed below: fold better than Parent (KD) values for each entry.
Molecular target: T1, CEACAM1 (Sino Biological) (human, UniProt P13688 35-428, limits assumed)
T1 construct: may be the same as CEACAM1-HIS; also called hCEACAM1; biotinylated soluble CEACAM1
T1 sequence: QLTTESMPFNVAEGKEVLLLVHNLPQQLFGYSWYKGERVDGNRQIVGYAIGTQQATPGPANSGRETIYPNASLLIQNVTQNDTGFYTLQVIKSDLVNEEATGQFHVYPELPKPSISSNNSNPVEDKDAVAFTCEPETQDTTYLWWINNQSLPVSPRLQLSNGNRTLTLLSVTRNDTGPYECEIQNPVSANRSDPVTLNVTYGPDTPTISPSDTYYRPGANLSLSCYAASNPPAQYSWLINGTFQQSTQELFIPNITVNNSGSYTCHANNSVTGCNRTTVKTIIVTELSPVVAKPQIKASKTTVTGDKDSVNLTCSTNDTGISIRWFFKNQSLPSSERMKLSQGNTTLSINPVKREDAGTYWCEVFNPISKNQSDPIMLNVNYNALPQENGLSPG
Assay: SPR single-cycle
Report the value in fold with no unit label.

INPUT: What fold better than Parent (KD) value was documented for this binder, Parent VH/L4 #1 (antibody, IgG4, V domains shown, IgG4 S241P, kappa) VH: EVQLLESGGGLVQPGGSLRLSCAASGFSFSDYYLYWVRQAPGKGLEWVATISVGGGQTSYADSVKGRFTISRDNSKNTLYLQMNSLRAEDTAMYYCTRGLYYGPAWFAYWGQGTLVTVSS VL: DIVMTQSPDSLAVSLGERATINCKSSQSLLNSANQKNYLAWYQQKPGQPPKLLIYFASTRESGVPDRFSGSGSGTDFTLTISSLQAEDVAVYYCQSHFPYYYTFGGGTKVEIK ?
OUTPUT: 1.54

INPUT: What do we get for He14/L4#2 (antibody, IgG4, V domains shown, IgG4 S241P, kappa) VH: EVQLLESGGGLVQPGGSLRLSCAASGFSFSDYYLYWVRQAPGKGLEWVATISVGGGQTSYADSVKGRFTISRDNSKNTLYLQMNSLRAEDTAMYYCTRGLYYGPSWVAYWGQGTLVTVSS VL: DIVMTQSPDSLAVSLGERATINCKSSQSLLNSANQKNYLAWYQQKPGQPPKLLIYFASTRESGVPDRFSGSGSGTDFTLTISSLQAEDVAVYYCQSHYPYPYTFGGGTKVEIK ?
OUTPUT: 1.39

INPUT: Try He17/L18 (antibody, IgG4, V domains shown, IgG4 S241P, kappa) VH: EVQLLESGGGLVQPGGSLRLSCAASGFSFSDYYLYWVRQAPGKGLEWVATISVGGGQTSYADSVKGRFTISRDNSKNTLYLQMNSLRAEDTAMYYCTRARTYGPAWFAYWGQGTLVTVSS VL: DIVMTQSPDSLAVSLGERATINCKSSQSLLNSANQKNYLAWYQQKPGQPPKLLIYFASTRESGVPDRFSGSGSGTDFTLTISSLQAEDVAVYYCQSHFPYPFTFGGGTKVEIK next.
OUTPUT: 1.62

INPUT: Further, for He9/L19 (antibody, IgG4, V domains shown, IgG4 S241P, kappa) VH: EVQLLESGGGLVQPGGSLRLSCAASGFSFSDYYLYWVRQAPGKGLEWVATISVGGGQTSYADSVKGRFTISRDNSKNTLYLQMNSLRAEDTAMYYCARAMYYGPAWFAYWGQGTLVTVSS VL: DIVMTQSPDSLAVSLGERATINCKSSQSLLNSANQKNYLAWYQQKPGQPPKLLIYFASTRESGVPDRFSGSGSGTDFTLTISSLQAEDVAVYYCQSHIYPNFTFGGGTKVEIK ?
OUTPUT: 0.82

INPUT: Entry He9/L4#2 (antibody, IgG4, V domains shown, IgG4 S241P, kappa) VH: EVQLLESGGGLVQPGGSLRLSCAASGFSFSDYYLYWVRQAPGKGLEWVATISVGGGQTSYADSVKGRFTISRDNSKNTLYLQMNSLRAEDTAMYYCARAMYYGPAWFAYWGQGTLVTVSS VL: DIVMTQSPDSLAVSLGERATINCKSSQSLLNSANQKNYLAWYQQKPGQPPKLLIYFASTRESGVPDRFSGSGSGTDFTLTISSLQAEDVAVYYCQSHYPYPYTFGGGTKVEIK please
OUTPUT: 9.71
